- Test system: Aphis gossypii
- assay explanation: Aphis gossypii test, Example E (sprayed to runoff, ammonium salt boosting)
- Type: in vivo
- applied conditions: 20 ppm active ingredient; no additive
Could you please report measured Degree of destruction/% after 6 days for the items listed next?
Numbers only, in %.

Consider the worked cases shown below.
{"columns": ["molecule", "system name", "numeric readout"],
 "data": [
  ["COCC1CCC2(CC1)NC(=O)C(c1c(C)cc(Cl)cc1Cl)=C2O (centres unmarked)", "Aphis gossypii", 75],
  ["Cc1ccc(-c2ccc(Cl)cc2)cc1C1=C(O)C(C)(C)NC1=O", "Aphis gossypii", 20],
  ["Cc1ccc(-c2ccc(Cl)cc2)cc1C1=C(O)C(C)(C)C(C)(C)OC1=O", "Aphis gossypii", 0],
  ["COC1CCC2(CC1)NC(=O)C(c1cc(C)c(Cl)cc1C)=C2O (centres unmarked)", "Aphis gossypii", 40]
]}

As a next step, examine the molecule that follows.
Input: What measured Degree of destruction/% after 6 days is associated with Cc1ccc(-c2ccc(Cl)cc2)cc1C1=C(O)C2(C)CCCCC2OC1=O (centres unmarked) on Aphis gossypii?
Output: 10
